biological target: β5 (Homo sapiens); construct: using HEK-293 cell lysate as the enzyme source of D5; endogenous in cells; experiment: Enzymatic inhibitory activity on β5 (HEK-293 cell lysate, Ac-WLA-AMC substrate); details: 1 hour pre-incubation
pIC50: −log10 of the molar value.
MEASURE NAME: pIC50

Solved entries:
# MOLECULE, pIC50
data = [
    ("O=C1CC[C@H](N2C(=O)c3ccc(N4CCN(CC5CCN(C(=O)C(=O)N[C@@H](Cc6coc7ccccc67)B(O)O)CC5)CC4)cc3C2=O)C(=O)N1 [Ex. 16]", 7.23),
    ("O=C(Nc1cnccn1)C(=O)N[C@@H](Cc1coc2ccccc12)B1OCCCO1 [Ex. 70]", 7.59),
    ("O=C(N[C@@H](Cc1coc2ccccc12)B(O)O)C(=O)N1C2CCC1COC2 [Ex. 39]", 6.41),
    ("O=C(Nc1cnc2ccccc2n1)C(=O)N[C@@H](Cc1coc2ccccc12)B(O)O [Ex. 47]", 7.36),
    ("CON(C)C(=O)C(=O)N[C@@H](Cc1coc2ccccc12)B(O)O [Ex. 3]", 6.29),
]

(1) COc1ccc2nc(NC(=O)C(=O)N[C@@H](Cc3coc4ccccc34)B(O)O)sc2c1 [Ex. 26]
(2) O=C(O)CC1(CC(=O)O)OB([C@H](Cc2coc3ccccc23)NC(=O)C(=O)Nc2cnccn2)OC1=O [Ex. 18]
(3) O=C(Nc1ccccn1)C(=O)N[C@@H](Cc1coc2ccccc12)B(O)O [Ex. 12]
(4) O=C(Nc1cc(Cl)ccc1Cl)C(=O)N[C@@H](Cc1coc2ccccc12)B(O)O [Ex. 24]
(5) Cc1cnc(NC(=O)C(=O)N[C@@H](Cc2coc3ccccc23)B(O)O)s1 [Ex. 32]
Endpoint returns the given molecules ordered by ascending pIC50. Give the labels in the order specified.
3, 4, 5, 2, 1

(A) CC1COB([C@H](Cc2coc3ccccc23)NC(=O)C(=O)Nc2cnccn2)O1 (some centres unmarked) [Ex. 68]
(B) CC1(C)[C@@H]2C[C@H]3OB([C@H](Cc4coc5ccccc45)NC(=O)C(=O)Nc4ccccn4)O[C@@]3(C)[C@H]1C2 [Ex. 23]
Kindly compare A with B and tell me which has the lower pIC50 figure. Write down the label attached to your selection.
B
(B: 6.90, A: 7.46)

(P) O=C(Nc1cccnc1Cl)C(=O)N[C@@H](Cc1coc2ccccc12)B(O)O [Ex. 64]
(Q) O=C(Nc1nc2ccccc2s1)C(=O)N[C@@H](Cc1coc2ccccc12)B(O)O [Ex. 27]
Please tell me which of the two, P or Q , has the higher reported pIC50 value. Write down the label attached to your selection.
P
(P: 7.60, Q: 7.35)

(1) O=C(Nc1cccc2c1OCC2)C(=O)N[C@@H](Cc1coc2ccccc12)B(O)O [Ex. 28]
(2) Cc1cnc(NC(=O)C(=O)N[C@@H](Cc2coc3ccccc23)B(O)O)cn1 [Ex. 46]
Please tell me which of the two, 1 or 2 , has the higher reported pIC50 value. Write down the label attached to your selection.
1
(1: 7.65, 2: 7.03)

###

target: LMP7 (Homo sapiens); construct: using MOLT-4 cell lysate as the enzyme source of LMP7; endogenous in cells; host or cells: MOLT-4 (human acute lymphoblastic leukemia cells); assay: Enzymatic inhibitory activity on LMP7 (MOLT-4 cell lysate, Ac-ANW-AMC substrate); type: biochemical; conditions: 1 hour pre-incubation
MEASURE NAME: IC50 (nM)

Solved entries:
# COMPOUND, IC50 (nM)
records = [
    ("O=C(Nc1cncnc1)C(=O)N[C@@H](Cc1coc2ccccc12)B(O)O [Ex. 48]", 4.58),
    ("O=C(Nc1cnccn1)C(=O)N[C@@H](Cc1coc2ccccc12)B(O)O [Ex. 9]", 9.02),
]

(P) O=C(Nc1nc2ccccc2s1)C(=O)N[C@@H](Cc1coc2ccccc12)B(O)O [Ex. 27]
(Q) COc1ncccc1NC(=O)C(=O)N[C@@H](Cc1coc2ccccc12)B(O)O [Ex. 45]
(R) O=C(Nc1cccnc1Cl)C(=O)N[C@@H](Cc1coc2ccccc12)B(O)O [Ex. 64]
Endpoint returns the given compounds ordered by ascending IC50. Give the labels in the order specified.
R, P, Q
(R: 2.31 nM, P: 3.53 nM, Q: 5.32 nM)

(A) CC1(C)[C@@H]2C[C@H]3OB([C@H](Cc4coc5ccccc45)NC(=O)C(=O)Nc4ccccn4)O[C@@]3(C)[C@H]1C2 [Ex. 23]
(B) CC1(C)[C@@H]2C[C@H]3OB([C@H](Cc4coc5ccccc45)NC(=O)C(=O)Nc4cnccn4)O[C@@]3(C)[C@H]1C2 [Ex. 17]
Please tell me which of the two, A or B , has the higher reported IC50 value. Write down the label attached to your selection.
A
(A: 3.81 nM, B: 2.6 nM)

###

target: LMP7 (Homo sapiens, UniProt P28062); construct: using MOLT-4 cell lysate as the enzyme source of LMP7; endogenous in cells; host or cells: MOLT-4 (human acute lymphoblastic leukemia cells); assay: Enzymatic inhibitory activity on LMP7 (MOLT-4 cell lysate, Ac-ANW-AMC substrate); assay type: biochemical; conditions: 1 hour pre-incubation
MEASURE NAME: IC50 (nM)

Solved entries:
# SMILES RECORD, MEASURE NAME, TEST VALUE
rows = [
    ("Cn1cccc(NC(=O)C(=O)N[C@@H](Cc2coc3ccccc23)B2O[C@@H]3C[C@@H]4C[C@@H](C4(C)C)[C@]3(C)O2)c1=O", "IC50", 1.32),
    ("CN(C)c1ccnc(NC(=O)C(=O)N[C@@H](Cc2coc3ccccc23)B(O)O)c1", "IC50", 5.96),
    ("C[C@@H](NC(=O)C(=O)N[C@@H](Cc1coc2ccccc12)B(O)O)c1ccccn1", "IC50", 24.7),
    ("O=C1COB([C@H](Cc2coc3ccccc23)NC(=O)C(=O)Nc2cnccn2)O1", "IC50", 1.23),
    ("CN(C)C(=O)C(=O)N[C@@H](Cc1coc2ccccc12)B(O)O", "IC50", 28.5),
]

(1) CC1(C)[C@@H]2C[C@H]3OB([C@H](Cc4coc5ccccc45)NC(=O)C(=O)Nc4ccc(F)cc4F)O[C@@]3(C)[C@H]1C2
(2) CC1(C)[C@@H]2C[C@H]3OB([C@H](Cc4coc5ccccc45)NC(=O)C(=O)Nc4ccccc4F)O[C@@]3(C)[C@H]1C2
Please tell me which of the two, 1 or 2 , has the higher reported IC50 value. Write down the label attached to your selection.
2

###

molecular target: LMP7 (Homo sapiens); construct: using MOLT-4 cell lysate as the enzyme source of LMP7; endogenous in cells; host or cells: MOLT-4 (human acute lymphoblastic leukemia cells); assay: Enzymatic inhibitory activity on LMP7 (MOLT-4 cell lysate, Ac-ANW-AMC substrate); assay type: biochemical; conditions: 1 hour pre-incubation
MEASURE NAME: IC50 (nM)

Solved entries:
# SMILES RECORD, TARGET, MEASURE NAME, TEST VALUE
measured = [
    ("COC(=O)C(=O)N[C@@H](Cc1coc2ccccc12)B(O)O", "LMP7 (Homo sapiens)", "IC50", 7.89),
    ("O=C(NC1CCOCC1)C(=O)N[C@@H](Cc1coc2ccccc12)B(O)O", "LMP7 (Homo sapiens)", "IC50", 7.3),
]

(1) O=C(N[C@H]1CCOC1)C(=O)N[C@@H](Cc1coc2ccccc12)B(O)O
(2) CON(C)C(=O)C(=O)N[C@@H](Cc1coc2ccccc12)B(O)O
Kindly compare 1 with 2 and tell me which has the lower IC50 figure. Write down the label attached to your selection.
1

###

target: β5 (Homo sapiens, UniProt P28074); construct: using HEK-293 cell lysate as the enzyme source of D5; endogenous in cells; assay: Enzymatic inhibitory activity on β5 (HEK-293 cell lysate, Ac-WLA-AMC substrate); conditions: 1 hour pre-incubation
pIC50: −log10 of the molar value.
MEASURE NAME: pIC50

Solved entries:
# MOLECULE, pIC50
data = [
    ("COC(=O)C(=O)N[C@@H](Cc1coc2ccccc12)B(O)O [Ex. 62]", 5.89),
    ("CC1(C)[C@@H]2C[C@H]3OB([C@H](Cc4coc5ccccc45)NC(=O)C(=O)Nc4ccc(F)cc4F)O[C@@]3(C)[C@H]1C2 [Ex. 54]", 7.63),
    ("O=C(Nc1cnccn1)C(=O)N[C@@H](Cc1coc2ccccc12)B1OC(=O)c2ccccc2O1 [Ex. 20]", 7.73),
    ("O=C(Nc1ncc(F)s1)C(=O)N[C@@H](Cc1coc2ccccc12)B(O)O [Ex. 34]", 6.88),
    ("O=C(Nc1ncc(Cl)s1)C(=O)N[C@@H](Cc1coc2ccccc12)B(O)O [Ex. 36]", 7.26),
]

(1) CC1(C)[C@@H]2C[C@H]3OB([C@H](Cc4coc5ccccc45)NC(=O)C(=O)Nc4ncc(Cl)s4)O[C@@]3(C)[C@H]1C2 [Ex. 35]
(2) Cn1ccnc1NC(=O)C(=O)N[C@@H](Cc1coc2ccccc12)B(O)O [Ex. 37]
(3) O=C(N[C@@H](Cc1coc2ccccc12)B(O)O)C(=O)N1CCCC(F)(F)C1 [Ex. 56]
(4) O=C(Nc1cncnc1)C(=O)N[C@@H](Cc1coc2ccccc12)B(O)O [Ex. 48]
(5) COC(=O)C(=O)N[C@@H](Cc1coc2ccccc12)B1O[C@@H]2CC3C[C@@H](C3(C)C)[C@]2(C)O1 [Ex. 61]
Endpoint returns the given molecules ordered by ascending pIC50. Give the labels in the order specified.
5, 2, 3, 1, 4
(5: 6.14, 2: 6.58, 3: 7.05, 1: 7.42, 4: 7.65)

Where these numbers come from: patent US20240425529A1
